Listing of recorded kon by entry.
target desc: recombinant hGPC3-His (human) (UniProt P51654)
assay summary: Biacore SPR, antibody captured, hGPC3-His analyte, 1:1 model
Please state the figure in M⁻¹ s⁻¹; there is no need to write the unit.

P3-A1 IgG variant of ARD-103 (antibody, V domains shown) VH: QVQLVESGAEVKKPGASVKVSCKASGYTFTDYEMHWVRQAPGQGLEWMGALDPSTGDTAYSQKFKGRVTLTADKSTSTAYMELSSLTSEDTAVYYCTRFYSYTYWGQGTLVTVSS VL: DVVMTQSPLSLPVTPGEPASISCRSSQSLVHWNGNTYLHWYLQKPGQSPQLLIYKVSNRFSGVPDRFSGSGSGTDFTLKISRVEAEDVGVYYCAQNTHVPPTFGQGTKLEIKR | 82300
P1-D6 IgG variant of ARD-103 (antibody, V domains shown) VH: QVQLVQSGAEVKNPGASVKVSCKASGYTFTDYEMHWVRQAPGQGLEWMGALDPFTGDTAYSQKFKGRVTLTADKSTSTAYMELSSLTSEDTAVYYCTRFYSYTYWGQGTLVTVSS VL: DVVMTQSPLSLPVTPGEPASISCRSSQSLVHSNGNTYLHWYLQKPGQSPQLLIYKVSNRFSGVPDRFSGSGSGTDFTLKISRVEAEDVGVYYCLQNGYVPPTFGQGTKLEIKR | 91300

Now consider the entry below.
Prompt: Which kon value belongs to P1-B9 IgG variant of ARD-103 (antibody, V domains shown) VH: QVQLVESGAEVKKPGASVKVSCKASGYTFTDYEMHWVRQAPGQGLEWMGALDPKTGDTALSQKFKGRVTLTADKSTSTAYMELSSLTSEDTAVYYCTRFYSYTYWGQGTLVTVSS VL: DVVMTQSPLSLPVTPGEPASISCRSSQSLVHSNGNTYLQWYLQKPGQSPQLLIYKVSNRFSGVPDRFSGSGSGTDFTLKISRVEAEDVGVYYCGQVTHVPPTFGQGTKLEIKR ?
Completion: 78000
